- Procedure details: AUC (0 to infinity) in Sprague-Dawley rat at 2.5 mg/kg, po
- Type: ADME, organism-based
- Set-up: time infinity, dose 2.5 mg/kg, route oral
- Measurement conditions: plasma

Smiles text | AUC(0-inf) (ng·h/mL)
CCS(=O)(=O)Nc1cccc(-c2cc(=O)n(-c3ccc(Cl)c(Cl)c3)nc2C)c1 | 30500

---

- System name: UniProtKB P10635
- Sequence (P10635 whole entry): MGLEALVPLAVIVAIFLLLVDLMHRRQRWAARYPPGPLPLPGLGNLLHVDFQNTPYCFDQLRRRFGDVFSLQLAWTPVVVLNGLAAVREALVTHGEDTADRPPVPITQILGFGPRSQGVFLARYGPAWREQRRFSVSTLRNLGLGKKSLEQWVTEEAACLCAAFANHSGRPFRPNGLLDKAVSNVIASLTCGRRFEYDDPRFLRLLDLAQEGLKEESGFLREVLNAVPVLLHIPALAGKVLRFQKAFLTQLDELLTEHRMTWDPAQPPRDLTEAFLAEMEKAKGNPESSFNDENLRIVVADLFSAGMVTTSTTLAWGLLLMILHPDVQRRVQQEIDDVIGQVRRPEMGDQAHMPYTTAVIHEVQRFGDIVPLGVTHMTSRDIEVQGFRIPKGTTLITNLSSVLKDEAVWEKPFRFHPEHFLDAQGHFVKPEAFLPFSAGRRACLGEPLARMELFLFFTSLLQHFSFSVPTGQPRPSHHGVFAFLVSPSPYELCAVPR
- Procedure details: Inhibition of CYP2D6 (unknown origin) at 10 uM relative to control
- Type: ADME

Smiles text | inhibition at 10 µM / %
CCS(=O)(=O)Nc1cccc(-c2cc(=O)n(-c3ccc(Cl)c(Cl)c3)nc2C)c1 | 0
